system: L1210 leukemia ip in BDF1 mice, survival T/C; experiment: NCI In Vivo Anticancer Drug Screen. Data for tumor model L1210 Leukemia (intraperitoneal) in B6D2F1 (BDF1) mice; details: endpoint: mean survival time; dose: 100.0 mg/kg/injection; schedule: Q04DX002 (ip); vehicle: Klucel (hydroxypropylcellulose) (HPC); higher = longer survival
Inconclusive results and toxic doses are left out.

| compound | T/C |
| --- | --- |
| CC(C)(C)C1=NN=C(C(C)(C)C)CS(=O)C1 | 90 % of control |
| CCC[CH2][Sn]([I])([CH2]C)[CH2]C | 90 % of control |
| O=C(Nc1ccc(Cl)cc1)Oc1ccc(C2CCCCC2)cc1 | 100 % of control |
| N#CSCC1OCC(C(O)C(O)C2COC(CSC#N)O2)O1 (centres undefined) | 95 % of control |

// provenance: PubChem BioAssay AID248
